Test system: Drosophila Shaker H4 potassium ion channels
assay method text: Patch voltage clamp recording, time course of channel closure (deactivation)
experimental setup: shaker h4 channel patch, 500 µM
outcome measure: Approximate Increase in Time Course of Closure (X)

compound smiles	unit of measure	limit sign	readout number
COc1cccc(Oc2c(OC)cccc2C(=O)O)c1	X	<	2
Cc1ccc(Sc2ccccc2C(=O)O)c(S(N)(=O)=O)c1	X	<	2
O=C(O)c1ccccc1C(=O)c1ccc(Cl)c([N+](=O)[O-])c1	X	=	2
O=C(O)c1ccccc1C(=O)c1ccccc1	X	=	2.5
Nc1ccccc1C(=O)c1ccccc1C(=O)O	X	=	2
Nc1cc(C(=O)c2ccccc2C(=O)O)ccc1Cl	X	=	2
Nc1ccc(C(=O)c2ccccc2C(=O)O)cc1[N+](=O)[O-]	X	≥	2
